// reported phosphorylation enrichment per item
system: AncSZ; test: phosphorylation enrichment, bacterial display (enrichment ratio); higher = better substrate or ligand; peptides without Tyr show the background
Please respond with just the number, no unit label.

> print(dat)
            polymer.sequence  readout.number
1  KCCCIYEKPRA [PPP1R11_Y64]            2.23
2                GYIISYREEEQ            1.79
3     RLNAIYQNNLT [GSR_Y158]           0.813

sequence RHPFFFAPELL [ALB_Y174_Y174F_YF] , phosphorylation enrichment observed: 1.64

---

test system: AncSZ; assay: phosphorylation enrichment, bacterial display (enrichment ratio); higher = better substrate or ligand; peptides without Tyr show the background
OUTCOME MEASURE: phosphorylation enrichment

Below, 5 sequences whose answers are already recorded.
> print(dat)
                 polymer.sequence  result
1  KVKVEYDMTVP [AHNAK_Y964_G962V]    0.94
2   TVMGLYQKSSL [MYH7_Y609_V606M]   0.824
3         AGIENYTSRFG [NKD2_Y256]   0.569
4         PLRADYLIARV [HLCS_Y635]   0.777
5       FLQEIYNSNNQ [FGG_Y140_YF]    1.07

sequence EEQFFYEKAIL [BCCIP_Y257_E254Q] , phosphorylation enrichment observed: 1.11

sequence VMAVAYRLAEQ [HK1_Y461_T457M] , phosphorylation enrichment observed: 0.972

sequence RSAGKYDVFFI [MECP2_Y120_L124F_YF] , phosphorylation enrichment observed: 1.03

sequence PFFTSYPPSPD [GDAP2_Y491_YF] , phosphorylation enrichment observed: 0.907

sequence HLELNYKEDEY [MME_Y502_Y497H] , phosphorylation enrichment observed: 1.32

sequence EVEFQYPFRLH [SYP_Y73_E72Q] , phosphorylation enrichment observed: 1.03

sequence RWHEGYRQTPK [CD44_Y412] , phosphorylation enrichment observed: 0.66

---

target: SHP2-C SH2; experiment: SH2 binding enrichment of the phosphorylated peptide, bacterial display (enrichment ratio); higher = better substrate or ligand; peptides without Tyr show the background;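 further: peptide library displayed on the E. coli surface as eCPX fusions, selected cells deep-sequenced, score is each peptide's frequency after selection divided by its frequency in the input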
Classify as follows. Reported SH2 binding enrichment greater than or equal to 0.8: YES. Reported SH2 binding enrichment below: NO.

Solved entries (count: 3):
> print(dat)
                      polymer.sequence  answer.label
1             HGTKVYIDPFT [EPHB4_Y590]           YES
2  RQNNSYTCFTA [SLC20A2_Y386_R382Q_YF]           YES
3       AKKMKYFEGVS [PRKDC_Y682_I680M]            NO

Determine whether measured SH2 binding enrichment meets or exceeds 0.8 for TKVVHYRKWIK [KLK2_Y249]
YES

Determine whether measured SH2 binding enrichment meets or exceeds 0.8 for IKAGAYDFPSL [CAMK2A_Y230_P235L]
NO

---

molecular target: Hck (UniProt P08631); experiment: phosphorylation enrichment, bacterial display (enrichment ratio); higher = better substrate or ligand; peptides without Tyr show the background
Sequence (P08631 whole entry, looked up): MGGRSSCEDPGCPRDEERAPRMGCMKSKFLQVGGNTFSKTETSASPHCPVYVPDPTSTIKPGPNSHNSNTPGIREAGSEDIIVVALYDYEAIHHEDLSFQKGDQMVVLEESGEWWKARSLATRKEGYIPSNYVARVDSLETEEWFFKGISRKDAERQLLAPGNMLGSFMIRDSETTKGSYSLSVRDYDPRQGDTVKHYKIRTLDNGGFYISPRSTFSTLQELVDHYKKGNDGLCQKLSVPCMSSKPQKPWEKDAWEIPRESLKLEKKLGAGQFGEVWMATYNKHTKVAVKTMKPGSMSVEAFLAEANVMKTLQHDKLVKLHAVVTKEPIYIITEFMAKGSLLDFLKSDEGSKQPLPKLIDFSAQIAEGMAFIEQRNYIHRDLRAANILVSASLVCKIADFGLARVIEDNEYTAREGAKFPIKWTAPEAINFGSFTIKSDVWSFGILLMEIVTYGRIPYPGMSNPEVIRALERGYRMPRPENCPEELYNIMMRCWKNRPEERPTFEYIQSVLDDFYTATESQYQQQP
// reported phosphorylation enrichment per item

Below, 3 sequences whose answers are already recorded.
> print(dat)
                 polymer.sequence  result
1  LITTLYIDFLG [KCNQ1_Y267_G269D]   0.818
2      KNKKDYYDMYE [SLC26A3_Y526]    0.73
3  SQQTYYPVSNM [ABCD1_Y181_R182P]    6.81

// returns phosphorylation enrichment for VRFMEYETQVK [TARDBP_Y155_T153M] with Hck (UniProt P08631); value = 0.459

// returns phosphorylation enrichment for GYIISYREEEQ with Hck (UniProt P08631); value = 0.473

// returns phosphorylation enrichment for ASKEPYYVHCI [MYO1D_Y585_R588H] with Hck (UniProt P08631); value = 0.554

// returns phosphorylation enrichment for QRDSSYFWEIE [RAF1_Y340_YF] with Hck (UniProt P08631); value = 0.934
